# Test system: rat papillary muscle
# testDetails: Isometric tension (electrically stimulated twitches) in papillary muscle
# Format: cell-based
# experimentalConditions: 10 to 100 μM; not significant
measuredParameter: maximum alterations to the papillary muscle twitches

smilesstring=O=C(NNCc1cccs1)c1ccc2c(c1)OCO2 measuredon="rat papillary muscle" result="92.4±2.5 % of the control"
smilesstring=Cc1ccc(/C=N/NC(=O)c2ccc3c(c2)OCO3)s1 measuredon="rat papillary muscle" result="115.0±5.0 % of the control"
smilesstring=CN(/N=C/c1cccs1)C(=O)c1ccc2c(c1)OCO2 measuredon="rat papillary muscle" result="86.5±4.0 % of the control"
smilesstring=O=C(N/N=C/c1ccc([N+](=O)[O-])s1)c1ccc2c(c1)OCO2 measuredon="rat papillary muscle" result="87.8±5.6 % of the control"

----------
# System: left ventricle bundles of a rat heart
# testDetails: Isometric tension in ventricular bundles
# Assay type: cell-based
# experimentalConditions: concentration not given; alterations not greater than 10%
measuredParameter: muscular response in ventricular bundles

molecule="Cc1ccc(/C=N/NC(=O)c2ccc3c(c2)OCO3)s1 [L787]" measuredon="left ventricle bundles of a rat heart" measuredparameter="muscular response in ventricular bundles" result="105±6.9 % of the control"
molecule="CN(/N=C/c1cccs1)C(=O)c1ccc2c(c1)OCO2 [L785]" measuredon="left ventricle bundles of a rat heart" measuredparameter="muscular response in ventricular bundles" result="96.5±3.8 % of the control"
molecule="O=C(NNCc1cccs1)c1ccc2c(c1)OCO2 [L791]" measuredon="left ventricle bundles of a rat heart" measuredparameter="muscular response in ventricular bundles" result="89.4±4.5 % of the control"
molecule="O=C(N/N=C/c1ccc([N+](=O)[O-])s1)c1ccc2c(c1)OCO2 [L790]" measuredon="left ventricle bundles of a rat heart" measuredparameter="muscular response in ventricular bundles" result="92.3±1.6 % of the control"

The reported numbers originate from patent US20080275105A1.
